- Tested on: Mythimna separata
- Test method notes: Antifeedant activity against third-instar larvae of Mythimna separata (Oriental armyworm) at 2 mg/ml applied on wheat leaf after 24 hr by non-choice leaf disk method relative to control
- Format: functional
Parameter measured: AFI (%)
The figure you give is taken to be in %; do not add the unit.

Req: For the compound C=C1CC[C@@H]2[C@](C)(CO)[C@H](O)CC[C@@]2(C)[C@@H]1C/C=C1/C(=O)OC[C@H]1O [ANDROGRAPHOLIDE] , what AFI is on record?
Resp: 26.7

Req: Value lookup for AFI; key = `CS(=O)(=O)Oc1ccc2ccc(=O)oc2c1`
Resp: 62.4

Req: Given `O=C(Oc1ccc2ccc(=O)oc2c1)c1ccc(Cl)cc1` , state its recorded AFI.
Resp: 9.2

Req: For the compound `O=C(Oc1ccc2ccc(=O)oc2c1)c1ccc(Cl)cc1Cl` , what AFI is on record?
Resp: 6.3
